Value source: paper PMC11984924

assay: In vivo pharmacokinetic study in CD-1 mice, 30 mg/kg SC; settings: male, CD-1, sc; plasma, mouse, 30 mg/kg subcutaneous
REPORTED_METRIC: CL/F
Give the number first and the unit second.

// query Give its CL/F value. Item: CC(=O)c1ccc(NC(=O)[C@@H](NC(=O)C(CC(C)C)P(=O)(O)O)C(C)C)cc1 (stereo partly shown) [compound 30]
// result 1.3 mL/min/kg

* * *

assay: Plasma stability, Göttingen minipig; type: in vitro ADME; settings: read-out: Minipig Plasma t1/2
REPORTED_METRIC: half-life at 1 µM

// query Give its half-life at 1 µM value. Item: CC(=O)c1ccc(NC(=O)[C@@H](NC(=O)C(CC(C)C)P(=O)(O)O)C(C)C)cc1 (stereo partly shown)
// result > 4 h
